All figures here come from the supplement of paper PMC10567573.

B1: RAB11B (parent)
chain: AVPTDEARAFAEKNNLSFIETSAL

# Variants of: B1
# assay_comment: protein stability index of a GFP-peptide fusion (GPS, HEK-293T) (PSI 1-6); higher = more stable;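 further: lentivirally expressed fusions sorted by FACS into six bins by GFP to DsRed ratio, PSI derived from sequencing read proportions per bin multiplied by bin number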
# details: c terminus: a fixed tail appended
quantity_kind: protein stability index
# respond with the number and nothing more

seq_string: AVPTDEARAFAEKNNLSFIYTSAL [E20Y]
protein stability index: 2.31

seq_string: AVVTDEARAFAEKNNLSFIETSAL [P3V]
protein stability index: 3.05

seq_string: AVPTDEARAFAEKLNLSFIETSAL [N14L]
protein stability index: 2.23

seq_string: AVPTDEARAFAEKNNGSFIETSAL [L16G]
protein stability index: 4.3

Quick one: protein stability index of AVPTDEARAFAEQNNLSFIETSAL [K13Q] ?
2.84

Now give it for AWPTDEARAFAEKNNLSFIETSAL [V2W] too.
2.52

AVPTDEARCFAEKNNLSFIETSAL [A9C] ?
2.49

Can you check AVPTDEARAIAEKNNLSFIETSAL [F10I] next?
3.33

Item: AVPTDEARAFAEKNNLSFIETSAH [L24H]
4.29

Also, AVPTDEARAFALKNNLSFIETSAL [E12L] please.
2.02

Another variant: AVPTDEARAFAEKNNLSFHETSAL [I19H]
3.49

Please give the result for AVPTDEARAFHEKNNLSFIETSAL [A11H] too.
2.3
